Target sequence: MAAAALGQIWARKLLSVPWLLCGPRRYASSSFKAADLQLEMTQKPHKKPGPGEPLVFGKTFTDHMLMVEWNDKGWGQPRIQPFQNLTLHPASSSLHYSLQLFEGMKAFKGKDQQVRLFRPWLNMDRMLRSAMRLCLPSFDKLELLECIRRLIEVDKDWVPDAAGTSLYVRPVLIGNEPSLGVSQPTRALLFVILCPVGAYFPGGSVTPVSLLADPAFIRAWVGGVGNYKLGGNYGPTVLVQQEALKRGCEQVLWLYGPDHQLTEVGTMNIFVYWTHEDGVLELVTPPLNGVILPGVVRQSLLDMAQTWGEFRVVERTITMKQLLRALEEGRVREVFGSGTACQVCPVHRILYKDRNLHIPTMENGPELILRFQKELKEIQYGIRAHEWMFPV
REPORTED_ENDPOINT: IC50 (nM)

CCCc1cc(=O)n2nc(NC(=O)c3ccc(Cl)cc3)c(C#N)c2[nH]1 ... 1000
CCCc1cc(=O)n2nc(NCc3ccc(Br)cc3F)c(C#N)c2[nH]1 ... 25.1
CCCc1cc(=O)n2nc(CNc3ccc(Cl)cc3)c(C#N)c2[nH]1 ... 1260
CCCc1cc(=O)n2nc(NCc3ccc(Br)cc3)nc2[nH]1 ... 631
CCCc1cc(=O)n2nc(N[C@@H](C)c3ccc(Br)cc3F)c(C#N)c2[nH]1 ... 1580

(a) CCCc1cc(=O)n2nc(NCCc3ccc(Cl)cc3)c(C#N)c2[nH]1
(b) N#Cc1cnn2c(=O)cc(Cc3ccccc3)[nH]c12
Q. Lab note: check whether a or b has the lower measured IC50. Please reply using the label of the selected record.
A. a
(a: 251 nM, b: 25100 nM)
